Target: FZD8 (Homo sapiens)
Construct: purchased Promega (in-house HiBiT-GPCR construct library, NanoBRET)
Sequence (Q9H461 28-694): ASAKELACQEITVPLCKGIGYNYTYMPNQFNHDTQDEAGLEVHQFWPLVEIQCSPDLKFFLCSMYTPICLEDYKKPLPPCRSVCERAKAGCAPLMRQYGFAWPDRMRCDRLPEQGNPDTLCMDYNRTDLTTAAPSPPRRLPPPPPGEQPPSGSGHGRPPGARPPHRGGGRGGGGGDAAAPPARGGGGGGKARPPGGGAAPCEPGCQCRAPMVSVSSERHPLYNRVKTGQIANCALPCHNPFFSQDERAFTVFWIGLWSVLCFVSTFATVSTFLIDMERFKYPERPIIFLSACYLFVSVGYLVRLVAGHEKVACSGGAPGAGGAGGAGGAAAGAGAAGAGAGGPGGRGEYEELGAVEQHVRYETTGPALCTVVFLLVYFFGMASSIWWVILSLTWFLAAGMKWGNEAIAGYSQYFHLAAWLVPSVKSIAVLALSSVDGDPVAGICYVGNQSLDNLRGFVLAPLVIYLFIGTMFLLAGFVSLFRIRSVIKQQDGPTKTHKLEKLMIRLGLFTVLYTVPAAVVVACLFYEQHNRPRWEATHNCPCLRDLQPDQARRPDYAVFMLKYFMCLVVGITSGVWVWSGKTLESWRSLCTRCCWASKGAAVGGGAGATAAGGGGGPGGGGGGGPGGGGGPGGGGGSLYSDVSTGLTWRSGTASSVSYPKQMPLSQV
Test: NanoBRET screen HiBiT-FZD8 in HEK293
Type: binding
Conditions: FZD8; tracer 1μM
Description: Each tracer candidate was screened across the entire library of HiBiT-GPCR constructs using NanoBRET as the detection modality. As depicted in Figure 4A, the specificity of interactions was evaluated through decrease in BRET due to competitive displacement of a bound tracer by excess parental compound. Each tracer was analyzed for binding to each HiBiT-GPCR fusion in the absence and in the presence of competing parental compound. […]
Overview of reported NanoBRET Fold Response across a group of molecules:
Please respond with just the number, no unit label.

Cc1cc2c(s1)Nc1ccccc1N=C2N1CCN(CCCNC(=O)CCOCCOCCOCCOCCNC(=O)CCc2ccc3n2[B-](F)(F)[N+]2=C(c4ccc[nH]4)C=CC2=C3)CC1 [Olanzapine-a-2-NB590]; 0.94
O=C(CCc1ccc2n1[B-](F)(F)[N+]1=C(c3ccc[nH]3)C=CC1=C2)NCc1ccc(C(=O)NCCOCCC(=O)N[C@@H]2CC[C@@]3(O)[C@H]4Cc5ccc(O)c6c5[C@@]3(CCN4CC3CC3)[C@H]2O6)cc1 [Naltrexone-3-NB590]; 0.78
COc1ccccc1N1CCN(CCCCN2C(=O)c3ccc(CNC(=O)CCOCCNC(=O)c4ccc(CNC(=O)CCc5ccc6n5[B-](F)(F)[N+]5=C(c7ccc[nH]7)C=CC5=C6)cc4)cc3C2=O)CC1 [NAN-190-3-NB590]; 0.87
O=C(CCOCCOCCOCCOCCNC(=O)CCc1ccc2n1[B-](F)(F)[N+]1=C(c3ccc[nH]3)C=CC1=C2)NCCCN1CCN(C2=Nc3ccccc3Oc3ccc(Cl)cc32)CC1 [Loxapine-a-2-NB590]; 1.01

[ask] Which NanoBRET Fold Response value is on record for N#CN=C(NCCCOc1cccc(CN2CCCCC2)c1)NCCNC(=O)CCOCCOCCOCCOCCNC(=O)CCc1ccc2n1[B-](F)(F)[N+]1=C(c3ccc[nH]3)C=CC1=C2 [Aminopotentidine-2-NB590] ?
[reply] 1.01
